assay: Quantitative highthroughput screen to assess conditional lethalithy of NOMO1 cells grown in RPMI1640 with untreated serum (RPMI+s) (AID 1963876); conditions: NOMO1 AML cells in RPMI+serum, CellTiter-Glo viability, 48 h; series mostly up to 45.8 µM; note: nearly all actives have a fitted effect of over 35% in size; note: potency is the fitted concentration of half-maximal effect;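 for viability: 100% = DMSO wells and 0% = empty wells without cells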
Records with an inconclusive call do not appear. Activity calls are given as the source filed them. Calls come from the whole dose curve; as a rule, active = well fitted cell-killing curve with a large enough effect; inconclusive = small, poorly fitted or top-dose-only effect; inactive = flat fitted curve, though single readings scatter.
Property label: Potency

1. Nc1ccc(C(=O)c2cc3c(ccc4ccccc43)[nH]2)cc1 : 14.8 µM (active)
2. Cc1cc(O)c2c(c1)C(=O)c1cccc(O)c1C2=O : inactive
3. COc1ccc2ccc(=O)oc2c1CC=C(C)C : inactive
4. CC(=O)O[C@]1(C(C)=O)CC[C@H]2[C@@H]3C=C(Cl)C4=CC(=O)[C@@H]5C[C@H]5[C@]4(C)[C@@H]3CC[C@@]21C : 0.59 µM (active)

====

assay: Viability qHTS for spleen associated tyrosine kinase inhibitor (SYKi) drug resistant MV4-11 cells (AID 1963824); conditions: SYKi-resistant MV4-11 viability, CellTiter-Glo, 72 h; series mostly up to 45 µM; note: nearly all actives have a fitted effect of over 35% in size; note: potency is the fitted concentration of half-maximal effect
Results filed as inconclusive are left out. Calls of active or inactive are those of the source. The call rests on the fitted dose curve; in most records, active means well fitted cell-killing curve with a large enough effect; inconclusive means small, poorly fitted or top-dose-only effect, or effect the other way; inactive means no such curve, though single readings can be large or run the other way.
Property label: Potency

1. C[C@@H]1O[C@@H](O[C@H]2[C@H](O[C@H]3CC[C@@]4(C)C(CC[C@]5(C)C4CC=C4[C@@H]6CC(C)(C)CC[C@]6(C(=O)O)CC[C@]45C)[C@]3(C)CO)OC[C@H](O)[C@@H]2O)[C@H](O)[C@H](O[C@@H]2OC[C@@H](O)[C@H](O)[C@H]2O)[C@H]1O (stereo not given in full) : 4.91 µM (active)
2. COc1cc(NS(=O)(=O)c2ccc(N)cc2)ncn1 : inactive
3. O=c1c(O)c(-c2ccc(O)cc2O)oc2cc(O)cc(O)c12 : inactive
4. CCOC(=O)c1ccc(C#Cc2ccc3c(c2)C(C)(C)CCS3)nc1 : 3.76 µM (active)
5. COc1cc2ncnc(Nc3ccc(NC(=O)c4ccccc4)cc3)c2cc1OC : 4.61 µM (active)

====

experiment: Quantitative highthroughput screen to assess conditional lethalithy of SEM cells grown in RPMI1640 with unreated serum (RPMI+s) (AID 1963883); details: SEM B-ALL cells, CellTiter-Glo viability, 48 h; series mostly up to 45.8 µM; note: nearly all actives have a fitted effect of over 35% in size;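 for viability: 100% = DMSO wells and 0% = empty wells without cells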
Records with an inconclusive call do not appear. Calls of active or inactive are those of the source. Calls come from the whole dose curve; as a rule, active = well fitted cell-killing curve with a large enough effect; inconclusive = small, poorly fitted or top-dose-only effect, or effect the other way; inactive = no such curve, though single readings can be large or run the other way.
Outcome codes: 1 (yes) for active, 0 (no) for inactive

1. Cc1cc(-c2ccc(CC(=O)Nc3ccc(-c4cccnc4)cc3)cc2)ccn1 : 1 (yes)
2. Oc1ccc(-c2ccc(-c3cc(Nc4cccc(CNC5CC5)c4)n[nH]3)cc2)c(O)c1 : 1 (yes)
3. O=c1cc(N2CCOCC2)oc2c(-c3ccccc3)cccc12 : 0 (no)

====

experiment: Viability qHTS for spleen associated tyrosine kinase inhibitor (SYKi) drug resistant MV4-11 cells (AID 1963824); conditions: SYKi-resistant MV4-11 viability, CellTiter-Glo, 72 h; series mostly up to 45 µM; note: nearly all actives have a fitted effect of over 35% in size
Results filed as inconclusive are left out. Active and inactive are the calls of the source. Calls come from the whole dose curve; as a rule, active = well fitted cell-killing curve with a large enough effect; inconclusive = small, poorly fitted or top-dose-only effect, or effect the other way; inactive = no such curve, though single readings can be large or run the other way.
Outcomes: active, inactive

1. CCCCOCCOC(=O)c1cccnc1 : inactive
2. C=C1C(=O)O[C@H](CCC)[C@H]1C(=O)O : inactive
3. CN[C@@H]1[C@H](O)[C@H](NC)[C@H]2O[C@@]3(O)C(=O)C[C@@H](C)O[C@H]3O[C@@H]2[C@H]1O : inactive
4. C#CCC(Cc1cnc2nc(N)nc(N)c2n1)c1ccc(C(=O)N[C@@H](CCC(=O)O)C(=O)O)cc1 (stereo not given in full) : active
5. CNC(=O)CN(CCN(CCN(CC(=O)[O-])CC(=O)NC)CC(=O)[O-])CC(=O)[O-].O.[Gd+3] : inactive

====

experiment: Quantitative highthroughput screen to assess conditional lethalithy of P12 Ichikawa cells grown in RPMI1640 with untreated serum (RPMI+s) (AID 1963881); conditions: ATP luminescence, 48 h; viability; series mostly up to 45.8 µM; note: nearly all actives have a fitted effect of over 35% in size;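 for viability: 100% = DMSO wells and 0% = empty wells without cells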
Inconclusive results are not listed. Activity calls are given as the source filed them. Calls follow the shape of the dose curve; as a rule, active = well fitted cell-killing curve with a large enough effect; inconclusive = small, poorly fitted or top-dose-only effect; inactive = flat fitted curve, though single readings scatter.
Outcome codes: active, inactive

1. CCc1cc(C(N)=S)ccn1 : inactive
2. CC[C@]1(O)C[C@H]2CN(CCC3=c4ccccc4=N[C]3[C@@](C(=O)OC)(c3cc4c(cc3OC)N(C)[C@H]3[C@@](O)(C(N)=O)[C@H](O)[C@]5(CC)C=CCN6CC[C@]43[C@@H]65)C2)C1 : active
3. CN[C@H]1[C@@H](O[C@@H]2[C@H](O[C@@H]3[C@@H](O)[C@@H](O)[C@@H](N=C(N)N)[C@@H](O)[C@@H]3N=C(N)N)O[C@H](C)[C@@]2(O)C=O)O[C@@H](CO)[C@@H](O)[C@H]1O : inactive
4. Nc1ncnc2c1ncn2[C@@H]1O[C@H](CO)[C@@H](O)[C@@H]1O : active
5. COc1cc([C@@H]2c3cc4c(cc3[C@@H](O[C@@H]3O[C@@H]5CO[C@@H](C)O[C@@H]5[C@H](O)[C@@H]3O)[C@H]3COC(=O)[C@H]23)OCO4)cc(OC)c1O : active
